Each entry below carries its recorded S/W.
# study_target: hFZD7 CRD-Fc (human, UniProt O75084 33-185)
# test_protocol: spot phage ELISA
assay_endpoint: S/W

binder: VPSDDLEAWCDVMY [SEQ ID NO 76]
endpoint_value: 2.7

binder: APSDDLAFWCHVVY [SEQ ID NO 97]
endpoint_value: 2.5

binder: VPADALAVWCDVMY [SEQ ID NO 66]
endpoint_value: 2.9

binder: VPSADLETWCHVMY [SEQ ID NO 83]
endpoint_value: 2.8

binder: AAADDLAFWCDVMY [SEQ ID NO 93]
endpoint_value: 2.7

binder: AAADDVASWCHVMY [SEQ ID NO 87]
endpoint_value: 2.3

binder: APADDLAFWCDVMY [SEQ ID NO 90]
endpoint_value: 3

binder: PPADDLAFWCDVMY [SEQ ID NO 85]
endpoint_value: 2.9
